tested on: RXF 393 renal; assay: NCI-60 one-dose screen, 48 h (100 = growth as untreated, 0 = no growth, -100 = all killed); conditions: 10 µM unless noted
The panel holds about 83,000 compounds, 20% with a hit somewhere; the sample as a whole holds those more often.
# label 1 = growth below 40% (exclusive); label 0 = growth at/above 40%

Compound	Assigned label
COc1ccc(-c2c(N)n[nH]c2-c2ccc(Cl)cc2O)cc1OC	label 0
CC(=O)N1C(=S)NC(=O)C1Cn1c(-c2ccccc2)nc2ccccc21 (stereo not drawn)	label 0

Consider the additional compound presented here.
Lookup: is_below(growth, 40%) for COc1cccc(-c2nn(-c3ccccc3)cc2-c2ccnc(NCCCNC(=O)c3cccc(C(F)(F)F)c3)c2)c1 ?
Found: label 1

###

The following compounds are shown together with reported growth values.
System: NCI-H322M lung
Assay: NCI-60 one-dose screen, 48 h (100 = growth as untreated, 0 = no growth, -100 = all killed)
Details: 10 µM unless noted
Experimental: Growth inhibition of the NCI-H322M human Non-Small Cell Lung tumor cell line is measured as a screen for anti-cancer activity. Cells are grown in 96 well plates and exposed to the test compound for 48 hours. Compounds are tested at a single concentration, which is 10^-5 M for most compounds. The reported endpoint is percent growth (GI% or GIPRCNT), where numbers from 0 - 100% represent growth inhibition, and numbers from -100% - 0 represent cell death. […]
Compounds without any hit were thinned out: in the full panel of roughly 83,000, 20% have a hit.
// return numeric value only (unit: %, not printed)

Example entries and their recorded answers appear below.
Compound	growth / %
CCN1C(=O)N(CC)C2Nn3c(s/c(=C\c4ccc(Cl)cc4Cl)c3=O)=NC21 (stereo not given)	65.5
CC(C)(C)CC(C)(C)Nc1c(-c2ccncc2)nc2cnccn12	103
CC(C)(C)n1cc(-c2ccnc(NCCCNS(=O)(=O)c3ccccc3)c2)c(-c2ccccc2)n1	88.9
CC1CC(C(C)(C)C)C(=O)C(C(C)(C)C)C1 (stereo not given)	107

// below: growth requested for another compound
Lookup: Return the recorded growth value; entry: N#Cc1nc(C#N)c(Sc2ccccc2)c(Sc2ccccc2)c1Sc1ccccc1
Found: 23.9

###

system: M14 melanoma; assay: NCI-60 one-dose screen, 48 h; details: 10 µM unless noted
Compounds without any hit were thinned out: in the full panel of roughly 83,000, 20% have a hit. Activity calls are given as the source filed them. The calls were made as follows: active = growth percent below 10; inactive = the rest.
Pick one: True for active, False for inactive

Some solved cases for reference:
Compound	Assigned label
CCN1C(=O)N(CC)C2C1NN=c1s/c(=C\c3cccs3)c(=O)n12 (centres undefined)	True
C[C@H]1[C@H]2[C@H]3CC[C@@H]4[C@@]5(C)C/C(=C/c6ccco6)C(=O)C(C)(C)[C@@H]5CC[C@@]4(C)[C@]3(C)CC[C@]23CO[C@]1(C)[C@@H](C(=O)/C=C\c1ccco1)C3	False
COc1cc(C2CC(c3ccc(Nc4ccnc5cc(Cl)ccc45)cc3)=NN2C=O)cc(OC)c1OC (centres undefined)	False

Consider the additional compound presented here.
Lookup: What call does the record list for O=C(NCCCNc1cc(-c2cn(-c3ccccc3)nc2-c2cccc(O)c2)ccn1)c1ccccc1 ?
Found: True

###

tested on: EKVX NSCLC; test: NCI-60 one-dose screen, 48 h; settings: 10 µM unless noted
This is part of a sample that, as a whole, favours compounds with a hit. Of some 83,000 tested, about 20% had one in any assay. The source made the active and inactive calls. Rule for the calls: active = growth percent below 10; inactive = the rest.
Pick one: active, inactive

Some solved cases for reference:
Compound	Assigned label
COc1ccc(-c2ccc3c(c2)sc2nc(-c4ccc(F)cc4)cn23)cc1	inactive
C#Cc1cccc(NC(=O)c2ccc(NC(=O)CCl)cc2)c1	inactive
CCN(CC)CCCCCCNc1cc(OC)c(Cl)c2cccnc12	inactive

Lookup: What call does the record list for O=c1[nH]nc(-c2ccccc2)c2c(-c3ccccc3)onc12 ?
Found: inactive

Lookup: What call does the record list for O=S(=O)(NCCCNc1cc(-c2c(-c3cccc(O)c3)nc3sccn23)ccn1)c1cccc(Cl)c1 ?
Found: inactive

Lookup: What call does the record list for CCOP(=O)(OCC)C1CP(=O)(c2ccccc2)CC(C)=C1Cl (stereo not given) ?
Found: inactive

###

system: MDA-MB-435 melanoma; experiment: NCI-60 one-dose screen, 48 h; details: 10 µM unless noted
About 83,000 compounds went through this panel and 20% of them were active in at least one assay; those are over-represented in the sample as a whole. The source made the active and inactive calls. Rule for the calls: active = growth percent below 10; inactive = the rest.
Pick one: true (1) = active, false (0) = inactive

Some solved cases for reference:
Query smiles	Assigned label
S=C(c1ccc2c(c1)OCO2)N1CCN(c2ccccc2Cl)CC1	false (0)
COc1ccc2oc3c(C)c4c(c(C)c3c2c1)C(=O)N(Cc1ccccc1)C4=O	false (0)
CNC(=O)CCN1CCN(CC/C=C2\c3ccccc3Sc3ccc(Cl)cc32)CC1	false (0)
Clc1cccc(Cl)c1C(Nc1nc2ccccc2s1)Nc1nc2ccccc2s1	false (0)
COc1ccc(/C=N\NC(=O)c2cc(-c3ccc(Br)cc3)n(-c3ccc(S(N)(=O)=O)cc3)n2)cc1	true (1)
NC(=S)Nc1cccc(O)c1	false (0)

Lookup: What call does the record list for O=C(/C=C/c1cccc(O)c1)c1cccc(-n2cc(-c3ccc4ccccc4c3)[nH]c2=O)c1 ?
Found: true (1)

Lookup: What call does the record list for S=C(Cc1ccc2c(c1)CCCC2)N1CCOCC1 ?
Found: false (0)

Lookup: What call does the record list for O=C(NCCNc1cc(-c2cn(-c3ccccc3)nc2-c2cccc(O)c2)ccn1)Nc1ccccc1 ?
Found: false (0)

Lookup: What call does the record list for Cc1ccc(-c2c(-c3ccccc3)c(=O)oc3ccc(C)cc23)cc1 ?
Found: false (0)

###

tested on: SW-620 colon; assay: NCI-60 one-dose screen, 48 h (100 = growth as untreated, 0 = no growth, -100 = all killed); conditions: 10 µM unless noted
The panel holds about 83,000 compounds, 20% with a hit somewhere; the sample as a whole holds those more often. Active and inactive are the calls of the source. How the source made its calls: active means growth percent below 10; inactive means the rest.
The following compounds are shown together with reported growth values.

Query smiles	growth
c1coc(-c2c3ccc(=[N+]4CCCCC4)cc-3oc3cc(N4CCCCC4)ccc23)c1	-80% (active)
CCCCNC(=O)Oc1ccc2c(=O)c3sc4c(=O)c5ccccc5c(=O)c4c3c(=O)c2c1	-75.6% (active)
CCc1c2c(nc3ccc(OC(=O)NCc4ccc(B5OC(C)(C)C(C)(C)O5)cc4)cc13)-c1cc3c(c(=O)n1C2)COC(=O)[C@]3(O)CC	8.04% (active)

// below: growth requested for another compound
Lookup: Return the recorded growth value; entry: Cn1c(-c2c(N)n(Cc3ccc(C(F)(F)F)cc3)c3nc(C#N)c(C#N)nc23)nc2ccccc21
Found: 6.57% (active)

###

tested on: OVCAR-4 ovarian; test: NCI-60 one-dose screen, 48 h; details: 10 µM unless noted
Compounds without any hit were thinned out: in the full panel of roughly 83,000, 20% have a hit. Active and inactive are the calls of the source. The calls were made as follows: active = growth percent below 10; inactive = the rest.
Pick one: t for active, f for inactive

Compound	Tgt	Assigned label
COc1ccc(-c2nc3sccn3c2-c2cc(-c3cc(OC)c(OC)c(OC)c3)on2)cc1	OVCAR-4 ovarian	f

Lookup: What call does the record list for Cc1ccc2[nH]c(=O)c3c(c2c1)OC(N)=C(C#N)C31c2cc(Br)ccc2-c2ccc(Br)cc21 ?
Found: f

Lookup: What call does the record list for Cc1cc(NCc2cc(Nc3ccnc4cc(Cl)ccc34)ccc2F)nc(N2CCOCC2)n1 ?
Found: t

Lookup: What call does the record list for COc1cc(C2CC(=O)Nc3c2c(C)nn3-c2nc3ccccc3[nH]2)c(OC)c(OC)c1OC (stereo unspecified) ?
Found: f

Lookup: What call does the record list for Cc1ccc(-c2cc(-c3ccccc3C)[nH]c(=O)c2C#N)s1 ?
Found: f

Lookup: What call does the record list for Cc1ccc(S(=O)(=O)N/N=C\c2cc(Cl)ccc2O)cc1 ?
Found: f

Lookup: What call does the record list for COc1ccc(-c2nc(SCCC(C)C)nc(N/N=C\c3cccc([N+](=O)[O-])c3)c2C#N)cc1 ?
Found: t

Lookup: What call does the record list for Cn1cc(-c2csc(-c3cccc(F)c3)n2)c2cccnc21 ?
Found: t

Lookup: What call does the record list for COc1cc(N=Nc2ccc(N)cc2)c(OC)cc1N=Nc1ccccc1.[Cl][Zn][Cl] ?
Found: f

###

tested on: LOX IMVI melanoma; assay: NCI-60 one-dose screen, 48 h (100 = growth as untreated, 0 = no growth, -100 = all killed); conditions: 10 µM unless noted
Compounds without any hit were thinned out: in the full panel of roughly 83,000, 20% have a hit. Calls of active or inactive are those of the source. The calls were made as follows: active = growth percent below 10; inactive = the rest.
Test readout: growth

Compound	growth
Cn1cc(-c2csc(-c3ccccc3)n2)c2cccnc21	-54.3% [100 µM] (active)
N#Cc1nc(C#N)c(Sc2ccccc2)c(Sc2ccccc2)c1Sc1ccccc1	-79.2% (active)
CCCCCCCCCCCCCCCCCCOc1ccc(CC(=O)OCC[N+]2(C)CCCC2)cc1	42.5% (inactive)
CCN(CC)CCCCCCNc1cc(OC)c(Cl)c2cccnc12	55.7% (inactive)

// below: growth requested for another compound
Lookup: Return the recorded growth value; entry: NNC(=O)c1nc(N)n(-c2ccc(S(N)(=O)=O)cc2)n1
Found: 93.3% (inactive)
